Biological target: Recombinant human renin (Homo sapiens, UniProt P00797)
Construct: made in house; host or cells: Chinese Hamster Ovary cells
Sequence (P00797 67-406): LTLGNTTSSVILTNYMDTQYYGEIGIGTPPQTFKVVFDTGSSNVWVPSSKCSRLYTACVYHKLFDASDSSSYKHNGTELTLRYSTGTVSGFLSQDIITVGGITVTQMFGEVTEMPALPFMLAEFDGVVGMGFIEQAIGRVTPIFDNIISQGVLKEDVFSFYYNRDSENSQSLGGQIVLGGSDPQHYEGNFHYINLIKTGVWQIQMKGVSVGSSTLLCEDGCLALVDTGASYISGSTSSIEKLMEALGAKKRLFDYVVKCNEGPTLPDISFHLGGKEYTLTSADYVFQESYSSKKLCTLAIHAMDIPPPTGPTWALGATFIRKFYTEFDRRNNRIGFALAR
Assay: FRET assay of inhibition of renin activity
Format: biochemical
Settings: recombinant human renin 4 nM, 1 h at RT, pH 7.4
Counter-ions that a name gives are not always drawn.
endpoint label: IC50

Entry under test: c1ccc(-c2cccc([C@H]3CCNC[C@@H]3OCc3ccc4ccccc4c3)c2)cc1 (relative stereo) [Example 1, hydrochloride] . Its IC50 was ~70 nM
